- TARGET: human cyclin-dependent kinase 2 (Cdk2) (Homo sapiens, UniProt P24941)
- Construct: poly-histidine; made in house; host or cells: E. coli
- PROTOCOL: Kinetic thiol consumption assay with wild type Cdk2 (C177)
- Type: binding
- ASSAY SETUP: model thiol glutathione
Please assign -1 whenever k(Cdk2)/k(GSH) rate enhancement is at or above 1, and 1 whenever it is below.

Past entries and their recorded results:
C=CC(=O)N1CCCCCC1c1ccc(N(C)C)cc1 (stereo not drawn) [EL-1140]	1
C=CC(=O)NC1CC(NC(=O)C2CCC2)C1 (stereo not drawn) [CA-202]	-1
C=CC(=O)N1CCn2cccc2C1c1ccccc1 (stereo not drawn) [CA-187]	1
C=CC(=O)N1CC(OCCN(CC)CC)C1 [CA-145]	1
C=CC(=O)NCC1CN(C2CC2)CCO1 (stereo not drawn) [CA-038]	1

query: Confirm or reject: k(Cdk2)/k(GSH) rate enhancement of C=CC(=O)N1CCn2c(Cc3ccccc3)nnc2C1 [CA-092] lies strictly below 1
result: -1

query: Please determine if C=CC(=O)Nc1cccc(C(=O)c2ccccc2)c1 [CA-218] is below 1 in terms of k(Cdk2)/k(GSH) rate enhancement.
result: -1

query: Does this molecule meet the criterion k(Cdk2)/k(GSH) rate enhancement < 1? C=CC(=O)NCCc1c(-c2ccccn2)[nH]c2ccccc12 [EL-1083]
result: 1

----------
- TARGET: Cdk2(H71C) (C177A) (Homo sapiens, UniProt P24941, C177A/H71C)
- Construct: poly-histidine; made in house; host or cells: E. coli
- PROTOCOL: Kinetic thiol consumption assay with Cdk2 mutant H71C
- Format: binding
- Design: key: rate constant with Cdk2 ÷ rate constant with model thiol (fold)
- ASSAY SETUP: Cdk2 H71C, additional mutation C177A
MEASURED ATTRIBUTE: Rate enhancement, Cdk2 H71C

Previously resolved entries follow.
C=CC(=O)Nc1ccc2c(c1)OC1(CCCC1)O2 [CA-054]	1.023
C=CC(=O)N1CC2CCCCCCC21 (centres unmarked) [CA-098]	0.8002
C=CC(=O)N1CCCc2cc(C(=O)OC)ccc21 [EL-1071]	7.215
C=CC(=O)N1CCCc2sccc2C1 [CA-034]	1.75
C=CC(=O)Nc1ccc(-c2ncccn2)cc1 [CA-037]	1.964
C=CC(=O)N(Cc1ccc2c(c1)CCO2)C1CCCC1 [CA-184]	7.662
C=CC(=O)N(C1CC1)C1CCCCC1C1CCCCC1 (centres unmarked) [CA-081/240]	0.9042
C=CC(=O)N(Cc1ccco1)Cc1cc2cc(C)ccc2o1 [CA-178]	5.546

Entry C=CC(=O)N(c1cccc2ncccc12)C1CCC1 [CA-032/228] — recorded Rate enhancement, Cdk2 H71C = 15.36

So, C=CC(=O)N(CCCN1CCOCC1)Cc1ccncc1 [CA-192] ? Its Rate enhancement, Cdk2 H71C was 0.218

Lab note: measured Rate enhancement, Cdk2 H71C of C=CC(=O)NCC1CCCN1S(=O)(=O)c1ccc(C)cc1 (centres unmarked) [CA-118] was 0.1972

----------
- TARGET: Cdk2[C177A, F80C, K278C] (Homo sapiens, UniProt P24941, C177A/F80C/K278C)
- Construct: poly-histidine; made in house; host or cells: E. coli
- PROTOCOL: Kinetic thiol consumption assay with mutant Cdk2 as model thiol
- Type: binding
- Parameters: unit not given here
- ASSAY SETUP: 500 μM ligand, 5 μM thiol, phosphate buffer pH 8
Catalogue of Rate constant with Cdk2[C177A, F80C, K278C] (k(Cdk2_mut)) values
In your answer, state the number alone without any accompanying words.

Please review the entries below; each comes with its answer.
C=CC(=O)NC(Cc1ccccc1)C(O)CF (stereo not shown)	0.00073
C=CC(=O)N(CCCN1CCOCC1)Cc1ccncc1	0.00447
C=CC(=O)N1CCC2(CC1)NC(=O)N(C)C2=O	0.00249

Param item: C=CC(=O)N1CCn2c(C(=O)NC3CC3)ccc2C1C (stereo not shown) ; param system: Cdk2[C177A, F80C, K278C] (Homo sapiens, UniProt P24941, C177A/F80C/K278C); output Rate constant with Cdk2[C177A, F80C, K278C] (k(Cdk2_mut)): 0.0302

Field Rate constant with Cdk2[C177A, F80C, K278C] (k(Cdk2_mut)) (system: Cdk2[C177A, F80C, K278C] (Homo sapiens, UniProt P24941, C177A/F80C/K278C)) for entry "C=CC(=O)N1CCN(C(=O)OC(C)(C)C)CC1" = 0.00615

# Rate constant with Cdk2[C177A, F80C, K278C] (k(Cdk2_mut)) measured on Cdk2[C177A, F80C, K278C] (Homo sapiens, UniProt P24941, C177A/F80C/K278C) for item "C=CC(=O)N1CCn2c(Cc3ccccc3)nnc2C1" = 0.01236

Measured Rate constant with Cdk2[C177A, F80C, K278C] (k(Cdk2_mut)) for this entry C=CC(=O)NCC1CCCN1S(=O)(=O)c1ccc(C)cc1 (stereo not shown) on Cdk2[C177A, F80C, K278C] (Homo sapiens, UniProt P24941, C177A/F80C/K278C): 0.00415

Measured Rate constant with Cdk2[C177A, F80C, K278C] (k(Cdk2_mut)) for this entry "C=CC(=O)N1CC2(CCC2)c2c(F)cccc21" on Cdk2[C177A, F80C, K278C] (Homo sapiens, UniProt P24941, C177A/F80C/K278C): 1.161

With Cdk2[C177A, F80C, K278C] (Homo sapiens, UniProt P24941, C177A/F80C/K278C) as the test system, "C=CC(=O)NCc1ccc(-c2csnn2)cc1" showed Rate constant with Cdk2[C177A, F80C, K278C] (k(Cdk2_mut)) of 0.0035

----------
- TARGET: Cdk2(N272C) (C177A) (Homo sapiens, UniProt P24941, C177A/N272C)
- Construct: poly-histidine; made in house; host or cells: E. coli
- PROTOCOL: Kinetic thiol consumption assay with Cdk2 mutant N272C
- Type: binding
- ASSAY SETUP: Protein: Cdk2; cysteine position N272C; additional mutation C177A; in h^-1
Labelling: Rate constant with Cdk2 N272C reported below 0.004 becomes 1; at or above becomes -1.

C=CC(=O)N1CCC(NC(=O)C2CCC2)C1 (stereo not drawn) [CA-088]	-1
C=CC(=O)N1CCCC1c1cnc2ccccc2c1 (stereo not drawn) [EL-1064]	-1
C#CCN1CCCN(C(=O)C=C)CC1 [CA-196]	1
C=CC(=O)NCCNC(=O)C1CCCN1S(=O)(=O)c1ccccc1 (stereo not drawn) [CA-224]	1
C=CC(=O)Nc1nc2ccccc2n1CCc1ccccn1 [CA-144]	-1

query: Is it true that Rate constant with Cdk2 N272C reported for C=CC(=O)N1CCC(c2nc3ccccc3[nH]2)CC1 [EL-1152] is less than 0.004?
result: 1

query: Is the reported Rate constant with Cdk2 N272C for C=CC(=O)NC1(C(N)=O)CCCCC1 [EL-1170] strictly below 0.004?
result: 1

query: Find out if reported Rate constant with Cdk2 N272C for C=CC(=O)N1CCN(Cc2noc(C3CC3)n2)CC1 [CA-091] is less than 0.004
result: 1

query: Please determine if C=CC(=O)Nc1ccccc1C#N [EL-1178] is below 0.004 in terms of Rate constant with Cdk2 N272C.
result: -1

query: Report whether reported Rate constant with Cdk2 N272C is lower than 0.004 (strictly) for O=C(CCl)N1CCCCCC1 [EN011]
result: -1

----------
Catalogue of Rate enhancement, Cdk2 N272 readings, one per entry.
- TARGET: Cdk2(N272C) (C177A) (Homo sapiens, UniProt P24941, C177A/N272C)
- Construct: poly-histidine; made in house; host or cells: E. coli
- PROTOCOL: Kinetic thiol consumption assay with Cdk2 mutant N272C
- Format: binding
- Set-up: key: rate constant with Cdk2 ÷ rate constant with model thiol (fold)
- ASSAY SETUP: Cdk2 N272, additional mutation C177A

So the reported Rate enhancement, Cdk2 N272 for C=CC(=O)N1CCn2c(C(=O)NC3CC3)ccc2C1C (stereo not shown) , on Cdk2(N272C) (C177A) (Homo sapiens, UniProt P24941, C177A/N272C), turned out to be 3.076

Rate enhancement, Cdk2 N272 on Cdk2(N272C) (C177A) (Homo sapiens, UniProt P24941, C177A/N272C) for "C=CC(=O)NCc1ccccc1" is 1.318

Rate enhancement, Cdk2 N272 for Cdk2(N272C) (C177A) (Homo sapiens, UniProt P24941, C177A/N272C) with input "O=C(CCl)N1CCSc2ccccc21" equals 0.243

The reported Rate enhancement, Cdk2 N272 value, Cdk2(N272C) (C177A) (Homo sapiens, UniProt P24941, C177A/N272C), for "C=CC(=O)NCc1ccc(F)cc1" reads 1.006

Fill in: Cdk2(N272C) (C177A) (Homo sapiens, UniProt P24941, C177A/N272C) Rate enhancement, Cdk2 N272 for "C=CC(=O)N1CCN(c2ccccc2C(N)=O)CC1" = 1.099

Entry C=CC(=O)N1CCn2cccc2C1c1ccccc1 (stereo not shown) , Cdk2(N272C) (C177A) (Homo sapiens, UniProt P24941, C177A/N272C) data, Rate enhancement, Cdk2 N272 value: 0.7126
